Target: T1, PARD3B_1, Q8TEW8
T1 sequence (Q8TEW8 196-299, limits assumed, looked up): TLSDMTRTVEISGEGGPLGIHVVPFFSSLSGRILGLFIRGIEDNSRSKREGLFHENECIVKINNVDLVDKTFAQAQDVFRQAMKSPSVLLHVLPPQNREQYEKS
Test: holdup assay
Parameters: key: below the threshold = too weak to quantify, mostly under pKd 3.1 to 4
Details: plain residues with an end cap or a label only (N-terminal biotin on a linker: ado-ado)
quantity-kind: pKd

Reference set (4 entries):
DFLSTFHIRI [CIB2, O75838] :: 4.68
KRPEMTSSSV [MUC3A, MUC3B, Q02505;Q9H195] :: below the threshold
EDGESWEYQI [TRPV6, Q9H1D0] :: 3.85
GTGYDRKDYV [CLDN3, O15551] :: 3.51

I would be grateful if you could provide pKd for each of the following entries.
1. QRPYRRGSEI [KCNJ18, B7U540]
2. LAHVKHKEQI [AQP3, Q92482]
3. NTLNRKTTPV [CACNG8, Q8WXS5]
4. VLYPREGTEV [FOXI1, Q12951]

A)
["below the threshold", "below the threshold", "below the threshold", "below the threshold"]
